Values compiled from ChEMBL document CHEMBL1143764.

assay: Binding affinity to DQ2; set-up: species or system Homo sapiens
*1 amine or outer side, *2 acyl side, *3 side chain or, on linkers, in order; H or OH if unused. Where a SMILES comes first, the peptide text is derived from it. Bridges are numbered along the chain shown (N, C = ends). X2 = O=C(CCOCCOCCOCCOCCOCCOCCOCCOCCOCCOCCOCCC(=O)[*:2])[*:1]; X3 = O=C(CCOCCOCCOCCOCCOCCOCCOCCC(=O)[*:2])[*:1]
VALUE_KIND: IC50 (nM)
Numbers only, in nM.

COMPOUND | UNIT_DESCRIPTOR | EXPERIMENTAL_VALUE
CC(C)C[C@@H]1NC(=O)CNC(=O)CNC(=O)CNC(=O)CNC(=O)[C@H](N)CSSC[C@H](C(=O)O)NC(=O)CNC(=O)CNC(=O)[C@H](Cc2ccc(O)cc2)NC(=O)[C@@H]2CCCN2C(=O)[C@H](CC(C)C)NC(=O)[C@H](CCC(=O)O)NC(=O)[C@@H]2CCCN2C(=O)[C@H](CCC(N)=O)NC(=O)[C@@H]2CCCN2C(=O)[C@H](Cc2ccccc2)NC(=O)[C@@H]2CCCN2C(=O)[C@H](CCC(N)=O)NC1=O | nM | 3100
CC(=O)N[C@H]1CCCCNC(=O)CCOCCOCCOCCOCCOCCOCCOCCC(=O)NCCCC[C@@H](C(=O)N[C@@H](CCC(=O)O)C(=O)N[C@@H](CC(C)C)C(=O)N2CCC[C@H]2C(=O)N[C@@H](Cc2ccc(O)cc2)C(=O)O)NC(=O)[C@H](CCC(=O)O)NC(=O)[C@@H]2CCCN2C(=O)[C@H](Cc2ccccc2)NC(=O)[C@@H]2CCCN2C(=O)[C@H](CCC(N)=O)NC1=O (Ac-KQPFPEKELPY-OH; linker 1-7 via X3) | nM | 600
CC(=O)N[C@H]1CCCCNC(=O)CCOCCOCCOCCOCCOCCOCCOCCOCCOCCOCCOCCC(=O)NCCCC[C@@H](C(=O)N[C@@H](CCC(=O)O)C(=O)N[C@@H](CC(C)C)C(=O)N2CCC[C@H]2C(=O)N[C@@H](Cc2ccc(O)cc2)C(=O)O)NC(=O)[C@H](CCC(=O)O)NC(=O)[C@@H]2CCCN2C(=O)[C@H](Cc2ccccc2)NC(=O)[C@@H]2CCCN2C(=O)[C@H](CCC(N)=O)NC1=O (Ac-KQPFPEKELPY-OH; linker 1-7 via X2) | nM | 800

Lab note: next compound to report on.
get_value(item= CC(C)C[C@@H]1NC(=O)CNC(=O)CNC(=O)[C@H](N)CSSC[C@H](C(=O)O)NC(=O)CNC(=O)CNC(=O)[C@H](Cc2ccc(O)cc2)NC(=O)[C@@H]2CCCN2C(=O)[C@H](CC(C)C)NC(=O)[C@H](CCC(=O)O)NC(=O)[C@@H]2CCCN2C(=O)[C@H](CCC(N)=O)NC(=O)[C@@H]2CCCN2C(=O)[C@H](Cc2ccccc2)NC(=O)[C@@H]2CCCN2C(=O)[C@H](CCC(N)=O)NC1=O , readout=IC50) returns 2000

* * *

assay: Binding affinity to DQ2; parameters: species or system Homo sapiens
VALUE_KIND: IC50
Answer format reminder: number followed by unit.

get_value(item= CC(C)C[C@@H]1NC(=O)CNC(=O)CNC(=O)CNC(=O)CNC(=O)CNC(=O)CNC(=O)[C@H](N)CSSC[C@H](C(=O)O)NC(=O)CNC(=O)CNC(=O)[C@H](Cc2ccc(O)cc2)NC(=O)[C@H]2CCCN2C(=O)[C@H](CC(C)C)NC(=O)[C@H](CCC(=O)O)NC(=O)[C@@H]2CCCN2C(=O)[C@H](CCC(N)=O)NC(=O)[C@@H]2CCCN2C(=O)[C@H](Cc2ccccc2)NC(=O)[C@@H]2CCCN2C(=O)[C@H](CCC(N)=O)NC1=O , readout=IC50) returns 4.2 µM
